- Tested on: 186277-243-T-J2-PDC multi-cell spheroid viability
- procedure text: Anticancer human tumor 186277-243-T-J2-PDC patient-derived colon adenocarcinoma cell line growth inhibition [PI3K]
- condition: curve of first compound; second compound 0.1 µM
readout type: IC50

Data point: CC1(C)CCC(Nc2ncc(C(F)(F)F)c(-c3c[nH]c4c(P(C)(C)=O)c(C#N)ccc34)n2)CN1 (stereo not drawn) + COc1c(OCCCN2CCOCC2)ccc2c3n(c(=NC(=O)c4cnc(N)nc4)nc12)CCN3 ; IC50 = < 31.6 nM

Input CC(Cn1ccc(-c2ccc(C#N)c(Cl)c2)n1)NC(=O)c1cc(C(C)O)[nH]n1 (stereo not drawn) + COc1c(OCCCN2CCOCC2)ccc2c3n(c(=NC(=O)c4cnc(N)nc4)nc12)CCN3 . Output IC50: < 31.6 nM

Value of measured IC50 for the entry Cn1ncnc1[C@H]1c2n[nH]c(=O)c3cc(F)cc(c23)N[C@@H]1c1ccc(F)cc1 + CC(Nc1ccc2c(c1)OCCn1cc(N3C(=O)OCC3C(F)F)nc1-2)C(N)=O : > 100 nM

GET /value?item= CNC(=O)c1ccc(N2C(=S)N(c3ccc(C#N)c(C(F)(F)F)c3)C(=O)C2(C)C)cc1F + CC(Nc1ccc2c(c1)OCCn1cc(N3C(=O)OCC3C(F)F)nc1-2)C(N)=O &field=IC50 returns > 10000 nM

The reported IC50 of the compound CC(C)n1nc(-c2ccc3oc(N)nc3c2)c2c(N)ncnc21 + COc1c(OCCCN2CCOCC2)ccc2c3n(c(=NC(=O)c4cnc(N)nc4)nc12)CCN3 was < 0.316 nM

Reported IC50 ( C[C@@H](NC(=O)c1ncnc(N)c1Cl)c1ncc(C(=O)Nc2cc(C(F)(F)F)c(Cl)cn2)s1 + COc1c(OCCCN2CCOCC2)ccc2c3n(c(=NC(=O)c4cnc(N)nc4)nc12)CCN3 ) = < 31.6 nM

IC50 measured on Cn1nccc1Nc1nccc(-c2ccn(C(CO)c3ccc(Cl)c(F)c3)c(=O)c2)n1 (stereo not drawn) + COc1c(OCCCN2CCOCC2)ccc2c3n(c(=NC(=O)c4cnc(N)nc4)nc12)CCN3 = < 31.6 nM

Briefly, IC50 measured for CCN1CCN(Cc2ccc(Nc3ncc(F)c(-c4cc(F)c5nc(C)n(C(C)C)c5c4)n3)nc2)CC1 + Cc1nc(NC(=O)N2CCCC2C(N)=O)sc1-c1ccnc(C(C)(C)C(F)(F)F)c1 : > 1000 nM

# IC50 of Cn1ncc(Cl)c1-c1cc(C(=O)NC(CN)Cc2cccc(F)c2)sc1Cl (stereo not drawn) + COc1c(OCCCN2CCOCC2)ccc2c3n(c(=NC(=O)c4cnc(N)nc4)nc12)CCN3 = < 31.6 nM

Record summary for C=CC(=O)N1CCN(c2nc(=O)n(-c3c(C)ccnc3C(C)C)c3nc(-c4c(O)cccc4F)c(F)cc23)C(C)C1 (stereo not drawn) + Cc1nc(NC(=O)N2CCCC2C(N)=O)sc1-c1ccnc(C(C)(C)C(F)(F)F)c1 : reported IC50 = > 10000 nM

Field IC50 (entry C[C@@H](NC(=O)c1ncnc(N)c1Cl)c1ncc(C(=O)Nc2cc(C(F)(F)F)c(Cl)cn2)s1 + Cc1nc(NC(=O)N2CCCC2C(N)=O)sc1-c1ccnc(C(C)(C)C(F)(F)F)c1 ) reads > 10000 nM

According to the records, this compound CCN1CCN(Cc2ccc(Nc3ncc(F)c(-c4cc(F)c5nc(C)n(C(C)C)c5c4)n3)nc2)CC1 + CC(Nc1ncnc2nc[nH]c12)c1cc2cccc(Cl)c2c(=O)n1-c1ccccc1 displays IC50 of > 1000 nM

The compound listed as CCN1CCN(Cc2ccc(Nc3ncc(F)c(-c4cc(F)c5nc(C)n(C(C)C)c5c4)n3)nc2)CC1 + COc1c(OCCCN2CCOCC2)ccc2c3n(c(=NC(=O)c4cnc(N)nc4)nc12)CCN3 has a reported IC50 of < 3.16 nM

* * *

Would you mind telling me the reported pIC50 of each entry?
- Test system: 186277-243-T-J2-PDC multi-cell spheroid viability
- procedure text: Anticancer human tumor 186277-243-T-J2-PDC cell line growth inhibition [PI3K];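 also: spheroids exposed to compounds for seven days before viability reading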
- condition: curve of first compound; second compound 0.0316 µM
pIC50: −log10 of the molar value.

Per the records, this molecule ( CCN1CCN(Cc2ccc(Nc3ncc(F)c(-c4cc(F)c5nc(C)n(C(C)C)c5c4)n3)nc2)CC1 + CC(Nc1ncnc2nc[nH]c12)c1cc2cccc(Cl)c2c(=O)n1-c1ccccc1 ) has pIC50 equal to < 6.00

Lab note: measured pIC50 of Cn1cnc2c(F)c(Nc3ccc(Br)cc3Cl)c(C(=O)NOCCO)cc21 + COc1c(OCCCN2CCOCC2)ccc2c3n(c(=NC(=O)c4cnc(N)nc4)nc12)CCN3 was > 8.02

Memo: CCN1CCN(Cc2ccc(Nc3ncc(F)c(-c4cc(F)c5nc(C)n(C(C)C)c5c4)n3)nc2)CC1 + Cc1nc(NC(=O)N2CCCC2C(N)=O)sc1-c1ccnc(C(C)(C)C(F)(F)F)c1 , reported pIC50: < 6.00

* * *

- Tested on: 186277-243-T-J2-PDC multi-cell spheroid viability
- procedure text: Anticancer human tumor 186277-243-T-J2-PDC cell line growth inhibition [PI3K];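 also: spheroids exposed to compounds for seven days before viability reading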;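 as to viability, T/C: 100% = DMSO vehicle control viability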
- condition: second compound 3.16 µM; first compound 0.01 µM; stronger effect = lower value
Each record is given fulfilled if its reported viability, T/C is strictly below 80%. Records at or above 80% are given not fulfilled.

Given the entry CCN1CCN(Cc2ccc(Nc3ncc(F)c(-c4cc(F)c5nc(C)n(C(C)C)c5c4)n3)nc2)CC1 + CC(Nc1ncnc2nc[nH]c12)c1cc2cccc(Cl)c2c(=O)n1-c1ccccc1 , would its reported viability, T/C be below 80%?
not fulfilled

Determine if CC(=O)c1c(C)c2cnc(Nc3ccc(N4CCNCC4)cn3)nc2n(C2CCCC2)c1=O + CC(Nc1ncnc2nc[nH]c12)c1cc2cccc(Cl)c2c(=O)n1-c1ccccc1 shows viability, T/C strictly lower than 80%.
not fulfilled

Threshold test, viability, T/C < 80%: CC(C)n1nc(-c2ccc3oc(N)nc3c2)c2c(N)ncnc21 + Cc1nc(NC(=O)N2CCCC2C(N)=O)sc1-c1ccnc(C(C)(C)C(F)(F)F)c1
fulfilled

Lab log: compare recorded viability, T/C with 80%; is it strictly lower for Cn1ncnc1[C@H]1c2n[nH]c(=O)c3cc(F)cc(c23)N[C@@H]1c1ccc(F)cc1 + CC(Nc1ncnc2nc[nH]c12)c1cc2cccc(Cl)c2c(=O)n1-c1ccccc1 ?
not fulfilled

State whether 80% exceeds viability, T/C recorded for CCN1CCN(Cc2ccc(Nc3ncc(F)c(-c4cc(F)c5nc(C)n(C(C)C)c5c4)n3)nc2)CC1 + Cc1nc(NC(=O)N2CCCC2C(N)=O)sc1-c1ccnc(C(C)(C)C(F)(F)F)c1 .
fulfilled

* * *

- Tested on: 186277-243-T-J2-PDC multi-cell spheroid viability
- procedure text: Anticancer human tumor 186277-243-T-J2-PDC cell line growth inhibition [PI3K];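 also: spheroids exposed to compounds for seven days before viability reading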;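 as to viability, T/C: 100% = DMSO vehicle control viability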
- condition: second compound 0.316 µM; first compound 1 µM; stronger effect = lower value
Answer each item with its documented viability, T/C.
// note: answer is a bare numeric in %

Looking up CC1(C)CCC(Nc2ncc(C(F)(F)F)c(-c3c[nH]c4c(P(C)(C)=O)c(C#N)ccc34)n2)CN1 (centres undefined) + CC(Nc1ccc2c(c1)OCCn1cc(N3C(=O)OCC3C(F)F)nc1-2)C(N)=O , I found its viability, T/C recorded as 41

Measured viability, T/C of C#Cc1c(F)ccc2cc(O)cc(-c3ncc4c(N5CC6CCC(C5)N6)nc(OCC56CCCN5CC(F)C6)nc4c3F)c12 (centres undefined) + COc1c(OCCCN2CCOCC2)ccc2c3n(c(=NC(=O)c4cnc(N)nc4)nc12)CCN3 : 0.32

Record CC1(C)CCC(CN2CCN(c3ccc(C(=O)NS(=O)(=O)c4ccc(NCC5CCOCC5)c([N+](=O)[O-])c4)c(Oc4cnc5[nH]ccc5c4)c3)CC2)=C(c2ccc(Cl)cc2)C1 + CC(Nc1ncnc2nc[nH]c12)c1cc2cccc(Cl)c2c(=O)n1-c1ccccc1 , field viability, T/C: 98.6

Record CC(Cn1ccc(-c2ccc(C#N)c(Cl)c2)n1)NC(=O)c1cc(C(C)O)[nH]n1 (centres undefined) + Cc1nc(NC(=O)N2CCCC2C(N)=O)sc1-c1ccnc(C(C)(C)C(F)(F)F)c1 . Reported viability, T/C: 116

Memo: C[C@@H](NC(=O)c1ncnc(N)c1Cl)c1ncc(C(=O)Nc2cc(C(F)(F)F)c(Cl)cn2)s1 + COc1c(OCCCN2CCOCC2)ccc2c3n(c(=NC(=O)c4cnc(N)nc4)nc12)CCN3 , reported viability, T/C: 6.31

// sample CCCS(=O)(=O)Nc1ccc(F)c(C(=O)c2c[nH]c3ncc(-c4ccc(Cl)cc4)cc23)c1F + Cc1nc(NC(=O)N2CCCC2C(N)=O)sc1-c1ccnc(C(C)(C)C(F)(F)F)c1 , its viability, T/C was 88

Summary for this compound, CC(C)NCC(C(=O)N1CCN(c2ncnc3c2C(C)CC3O)CC1)c1ccc(Cl)cc1 (centres undefined) + Cc1nc(NC(=O)N2CCCC2C(N)=O)sc1-c1ccnc(C(C)(C)C(F)(F)F)c1 : viability, T/C is 36.5

Reported viability, T/C of CNC(=O)c1ccc(N2C(=S)N(c3ccc(C#N)c(C(F)(F)F)c3)C(=O)C2(C)C)cc1F + CC(Nc1ncnc2nc[nH]c12)c1cc2cccc(Cl)c2c(=O)n1-c1ccccc1 : 104

So for CCCS(=O)(=O)Nc1ccc(F)c(C(=O)c2c[nH]c3ncc(-c4ccc(Cl)cc4)cc23)c1F + COc1c(OCCCN2CCOCC2)ccc2c3n(c(=NC(=O)c4cnc(N)nc4)nc12)CCN3 , the logged viability, T/C turned out to be 8.35
